Dissolved amount values, listed per item
- test: Dissolution test of poorly-soluble substances using distilled water
- Type: physicochemical
- experimental parameters: water; elution time 10 min
Field format: number, assumed µg/mL, no unit text.

Would you please look over these solved cases?
In one line, give reported Dissolved amount of the entry `CCn1cc(C(=O)O)c(=O)c2cc(F)c(N3CCNCC3)cc21` . 523.1

Provide Dissolved amount value for the following compound: `CC(=O)Oc1ccccc1C(=O)O` 2985.3

Read the entry `O=C1NC(=O)C(c2ccccc2)(c2ccccc2)N1` and write its reported Dissolved amount. 23.3

Please report the measured Dissolved amount for `CCS(=O)(=O)CCn1c([N+](=O)[O-])cnc1C` 3880.0

Provide one value: measured Dissolved amount of `COc1ccc2c(c1)c(CC(=O)O)c(C)n2C(=O)c1ccc(Cl)cc1` 7.9

Tell me Dissolved amount reported for NC(=O)N1c2ccccc2C=Cc2ccccc21 [compound 22, Carbamazepine] 234.8

Here's the next entry for you.
Quick one: give measured Dissolved amount for `OCCN(CCO)c1nc(N2CCCCC2)c2nc(N(CCO)CCO)nc(N3CCCCC3)c2n1` 7.9

====

- test: Dissolution test of poorly-soluble substances using 2nd fluid for disintegration test (pH 6.8) of the Japanese Pharmacopoeia
- Assay type: physicochemical
- experimental parameters: 2nd fluid for disintegration test; elution time 180 min
Reported Dissolved amount values for the following molecules.
I only need the number, in µg/mL, no unit after it.

Known results for molecules:
Please indicate Dissolved amount recorded for `Cn1c(=O)c2[nH]cnc2n(C)c1=O` 8906.5

Entry O=C(Nc1ccc(Cl)cc1)Nc1ccc(Cl)c(Cl)c1 [10-1, Trichlorocarbanilide] needs its Dissolved amount filled in; supply it. 1.3

Supply reported Dissolved amount belonging to this molecule: `CC(C)(Sc1cc(C(C)(C)C)c(O)c(C(C)(C)C)c1)Sc1cc(C(C)(C)C)c(O)c(C(C)(C)C)c1` 26.8

Further cases:
Consider the molecule CC(=O)O[C@]1(C(C)=O)CC[C@H]2[C@@H]3C=C(Cl)C4=CC(=O)CC[C@]4(C)[C@H]3CC[C@@]21C [Comparative Example 3-2, Chlormadinone acetate] . State its measured Dissolved amount. 2.3

Tell me its Dissolved amount given `CC(=O)Oc1ccccc1C(=O)O` as the entry. 6458.1

====

# key: entry, value: Dissolved amount
- test: Dissolution test of poorly-soluble substances using distilled water
- Type: physicochemical
- experimental parameters: water; elution time 30 min
Respond with the bare value in µg/mL.

Give me measured Dissolved amount, please, for this molecule: NC(=O)N1c2ccccc2C=Cc2ccccc21 [compound 22, Carbamazepine] 214.3

In one line, give reported Dissolved amount of the entry CCn1cc(C(=O)O)c(=O)c2cc(F)c(N3CCNCC3)cc21 [compound 27, Norfloxacin] . 492.3

Give the reported Dissolved amount for this molecule. CC(=O)SC[C@@H](C)C(=O)N1CCC[C@H]1C(=O)N[C@@H](Cc1ccccc1)C(=O)O [compound 24, Alacepril] 931.2

Now examine the next entry.
Identify measured Dissolved amount corresponding to NC(N)=Nc1nc(CSCCC(N)=NS(N)(=O)=O)cs1 [Comparative Example 17, Famotidine] 1566.8

====

Parameter: Dissolved amount. Scope: all listed entries.
- test: Dissolution test of poorly-soluble substances using distilled water
- Format: physicochemical
- experimental parameters: water; elution time 30 min
Express the result in µg/mL but write the number alone.

Solved cases below.
In one line, give reported Dissolved amount of the entry O=[N+]([O-])O[C@H]1CO[C@H]2[C@@H]1OC[C@H]2O[N+](=O)[O-] [compound 30, Isosorbide Dinitrate] . 3490.4

Recall and state the measured Dissolved amount for CC(=O)Nc1nnc(S(N)(=O)=O)s1 [compound 23, Acetazolamide] . 1244.8

Item `COc1ccc2c(c1)c(CC(=O)O)c(C)n2C(=O)c1ccc(Cl)cc1` : provide Dissolved amount 8.0

Further cases:
Specify Dissolved amount for `OCCN(CCO)c1nc(N2CCCCC2)c2nc(N(CCO)CCO)nc(N3CCCCC3)c2n1` and stop. 8.0

Give reported Dissolved amount value for CC1(C)[C@@H](O[C@H]2O[C@H](C(=O)O)[C@@H](O)[C@H](O)[C@H]2O[C@@H]2O[C@H](C(=O)O)[C@@H](O)[C@H](O)[C@H]2O)CC[C@]2(C)[C@H]3C(=O)C=C4[C@@H]5C[C@@](C)(C(=O)O)CC[C@]5(C)CC[C@@]4(C)[C@]3(C)CC[C@@H]12 [Comparative Example 16, Ammonium Glycyrrhizinate] 6792.2

Report measured Dissolved amount; entry is `CC(C)(Sc1cc(C(C)(C)C)c(O)c(C(C)(C)C)c1)Sc1cc(C(C)(C)C)c(O)c(C(C)(C)C)c1` 6.1

Reference source for all entries: patent US9023398B2
